B1: H2-Kb / Ed21 (parent complex)
chain 1: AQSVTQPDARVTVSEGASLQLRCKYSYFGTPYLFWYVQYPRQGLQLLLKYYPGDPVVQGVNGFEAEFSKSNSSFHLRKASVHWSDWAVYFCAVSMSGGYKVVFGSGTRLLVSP
chain 2: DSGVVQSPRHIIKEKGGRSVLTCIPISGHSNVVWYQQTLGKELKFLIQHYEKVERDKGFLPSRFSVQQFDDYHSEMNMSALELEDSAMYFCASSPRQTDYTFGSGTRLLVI
chain 3: not shown
chain 4: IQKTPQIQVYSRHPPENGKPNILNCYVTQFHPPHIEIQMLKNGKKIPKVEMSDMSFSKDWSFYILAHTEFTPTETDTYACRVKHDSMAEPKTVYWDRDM
chain 5: SIINFEKL

variants of: B1; assay: % of reporter cells activated (NFAT-GFP), raw; note: test concentration or dose not given here
METRIC: ratio to parent
Answer with the value's number alone.

chain 5 F5W: 0.866

Looking for the measured ratio to parent of chain 5 K7F , can you help?
0.261
